Attribution: PubChem BioAssay

- Experiment description: endothelial E-selectin expression blockers – imaging, HUVEC, immunofluorescence, MLSMR starter and 10KST1 sets, primary screen (AID 487);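 further: 100% = median nuclei count of all wells on the same plate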
- Condition description: HUVEC TNFalpha-induced E-selectin immunofluorescence imaging, at 2 µM; measured here: cell number, toxicity
Readout name: nuclei count (%)
Give just the numeric value; % need not be written.

Exercise: Param item = `O=C1c2ccccc2C(=O)N1Cc1nc2ccccc2c(=O)n1CCN1CCOCC1` ; retrieve measured nuclei count.
Key: 160

Exercise: I have this molecule here, `O=c1[nH]c(Nc2ccccc2)cc2ccccc12` , and I need its recorded nuclei count.
Key: 96.7

Exercise: Need nuclei count of `COc1ccc(OC)c(S(=O)(=O)Nc2ccc(O)c3ccccc23)c1` , thanks.
Key: 114

Exercise: Would you mind telling me what nuclei count value was observed for `CCc1nnc(NC(=O)CCC(=O)Nc2ccccc2)s1` ?
Key: 93.4

Exercise: GET /values?readout=nuclei count&item= `CCc1cc2c(=O)c(-c3ccc4c(c3)OCCO4)coc2cc1OC(=O)c1ccco1`
Key: 105

Exercise: nuclei count lookup needed for `CCOc1ccccc1C(=O)NCCC(=O)O` , thanks.
Key: 118

Exercise: Please report the recorded nuclei count for `COc1ccccc1-n1cnc(N)c1C(C)=O` .
Key: 110

Exercise: Suppose we examine the molecule `O=c1oc2ccccc2c(O)c1CN1CCCCC1` ; what nuclei count value has been reported?
Key: 117

Exercise: Can you look up the measured nuclei count of `Cc1ccccc1OCc1nnc(SCC(=O)NCc2ccccc2)n1C` for me?
Key: 120

Exercise: For `O=C(Nc1cccnc1)c1cc2c(ccc3ccccc32)o1` , what is its reported nuclei count?
Key: 140

Exercise: Which nuclei count value belongs to `Cc1sc2ncnc(Oc3ccc(-n4ccnc4)cc3)c2c1C` ?
Key: 140

Exercise: Which value of nuclei count has been reported for `Cc1oc(-c2ccccc2F)nc1CS(=O)(=O)CC(=O)N1CCCCCC1` in the records?
Key: 117

----------
- Experiment description: reduction of polyQ htt aggregates in cells – imaging, exon1htt(103Q)mCFP cells, high-content imaging, primary screen (AID 483);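 further: compound exposure lasted 3 days before fixation; percent of the per-plate median nuclei count of sample wells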
- Condition description: exon1htt(103Q)mCFP cell line, aggregate imaging, at 2 µM; measured here: cell count, toxicity
Readout name: nuclei count (%)
Give a bare numeral; the unit % is implied.

Exercise: # input compound: `Cc1cc(/C=N/n2cnnc2)c(C)n1-c1ccc(Cl)cc1Cl` ; wanted: its nuclei count
Key: 94.2

Exercise: Return reported nuclei count; argument: NC1=NC(c2ccc(Br)cc2)n2c(nc3ccccc32)N1 (centres undefined)
Key: 105

Exercise: Recorded nuclei count of `C=CCOc1ccc(CN(C)CC(=O)N(CC(C)C)c2c(N)n(CC(C)C)c(=O)[nH]c2=O)cc1` , please.
Key: 101

Exercise: Returns the measured nuclei count for the input compound. Input: COc1cc(C2C(C(=O)c3ccc(C)o3)=C(O)C(=O)N2c2cc(C)on2)cc(Br)c1O (centres undefined)
Key: 109

Exercise: Entry CCC(CCC(=O)Nc1cccc(C(=O)O)c1)C(=O)O (centres undefined) has what nuclei count?
Key: 86.5

Exercise: What value of measured nuclei count is listed for `Cn1nnnc1SCC(=O)N1CCN(c2ccccc2)CC1` ?
Key: 97.4

Exercise: Entry `CCCCOc1cccc(NC(=O)CSc2nccn2C)c1` has what nuclei count?
Key: 96.8

Exercise: Given the compound `CCC(=O)c1ccc(OCCN2CCOCC2)cc1` , what is its reported nuclei count?
Key: 107

Exercise: What value of nuclei count has been recorded for this entry: Cc1c[nH]c2cccc(OCC(O)CNC(C)(C)C)c12 (centres undefined)
Key: 95.2

Exercise: # input compound: `CN(C)CCCNC(=O)CCC1CCCCC1` ; wanted: its nuclei count
Key: 103

Exercise: What does the record list as nuclei count for `CCOc1ccccc1N(CC(=O)N1CCCCCC1)S(C)(=O)=O` ?
Key: 117

Exercise: Can you share its nuclei count? I mean this compound: CCn1ncc(C2=NOC(C(=O)Nc3ccc4c(c3)OCO4)C2)c1C (centres undefined)
Key: 99.9

Exercise: Fill in: nuclei count of COc1ccc(-c2nc(CS(=O)CC(=O)N3CCCC3)c(C)o2)cc1 (centres undefined) is ___
Key: 100

Exercise: Dear colleague, I am looking for the recorded nuclei count of the following compound: CC1Oc2ccccc2N(CC(=O)NCc2cccs2)C1=O (centres undefined)
Key: 91.4

Exercise: Please report the recorded nuclei count for `Cc1c(NS(=O)(=O)c2ccc3c(c2)n(C)c(=O)n3C)c(=O)n(-c2ccccc2)n1C` .
Key: 99.2

Exercise: What measured nuclei count goes with O=C1OC(N2CCN(c3ccccn3)CC2)c2ccccc21 (centres undefined) ?
Key: 104

Exercise: # query: nuclei count of entry `CCOc1ccccc1C(=O)NCCC(=O)O`
Key: 91.6

Exercise: # nuclei count lookup, item `CC(=O)N1CCc2cc(S(=O)(=O)CCC(=O)N3CCN(c4ccccn4)CC3)ccc21`
Key: 107

Exercise: Param item = `COc1ccc(-c2noc(CSc3nc4ccccc4c(=O)n3-c3ccccc3)n2)cc1OC` ; retrieve measured nuclei count.
Key: 96.7

Exercise: What does the data say about its nuclei count? Entry: `Cn1nnnc1SCSc1nnnn1C`
Key: 56.1

Exercise: # nuclei count lookup, item Cc1cccc(NC(=O)CC2NC3CCCCC3NC2=O)c1 (centres undefined)
Key: 81

Exercise: # nuclei count lookup, item `COCCNC(=O)c1ccc(CS(=O)(=O)c2ccc(OC)cc2)o1`
Key: 96.8

Exercise: Consider the compound CC1Cc2ccccc2N1C(=O)CSc1nnc2n1C(C)(C)Cc1ccccc1-2 (centres undefined) and give its measured nuclei count.
Key: 84.2

Exercise: Requested field: nuclei count. Item: `Cc1cc(C)n(CCCNC(=O)c2ccc3c(c2)NC(=O)CS3)n1`
Key: 87.8

----------
- Experiment description: blockers of RIG-like receptor reporter activation – cell-based, Sendai virus stimulus, luciferase, 10K MLSCN set, TLR/RLR signaling modifier project, primary screen (AID 602276);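 further: firefly luciferase from ISG56 promoter only with Renilla not read in this screen; 0% = Sendai virus plus DMSO and 100% = medium plus DMSO without virus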
- Condition description: HEK293 RL24 IRF3 luciferase reporter, at 10 µM, stronger effect = higher value
Readout name: inhibition (%)
Kindly answer with a numeric value in %, unit omitted.

Exercise: # lookup: inhibition of `CC(C)OC(=O)CSc1nnc(-c2ccco2)n1N`
Key: 0.828

Exercise: Returns the measured inhibition for the input compound. Input: `COc1ccc(Br)cc1C(=O)Nc1nnn(C)n1`
Key: -19.5

Exercise: # query: inhibition of entry `O=C(CCN1CCOCC1)Nc1cccc(Br)c1`
Key: 16.1

Exercise: What inhibition value was documented for this compound, `O=S(=O)(Nc1cccc2ncccc12)c1cccs1` ?
Key: -7.18

Exercise: What does the record list as inhibition for `CCOc1ccc(N(CC(=O)Nc2ccc(F)c(F)c2)S(=O)(=O)c2c(C)noc2C)cc1` ?
Key: 13

Exercise: # get_value(readout='inhibition', item= `c1n[nH]c(SCCCCSc2ncn[nH]2)n1` )
Key: 15.9

Exercise: Dear colleague, I am looking for the recorded inhibition of the following compound: CC1Cc2ccccc2N1C(=O)c1cnsn1 (centres undefined)
Key: -9.05

Exercise: Requested read-out: inhibition. Entry: `O=C1c2ccccc2C(=O)N1c1cccc(-c2nc3ccccc3o2)c1`
Key: 2.66

Exercise: Give its inhibition value. Item: `Cc1c2c(nc3nc4ccccc4n13)CC(C)(C)CC2=O`
Key: 16.3

Exercise: Which inhibition is reported for this compound? `COc1cc2c(cc1OC)-c1cc(OCc3cccnc3)nc(=O)n1CC2`
Key: 31.6

Exercise: If you can, please state the reported inhibition value of `O=C(N1CCOCC1)N1CCC(NC(=O)C23CC4CC(CC(C4)C2)C3)CC1` .
Key: 15.6

Exercise: # get_value(readout='inhibition', item= O=C1CCCCCC1C1(O)C(=O)Nc2ccccc21 (centres undefined) )
Key: 9.01

Exercise: # get_value(readout='inhibition', item= CC(NC(=O)c1ccco1)c1ccc2c(c1)OCCO2 (centres undefined) )
Key: 9.46

Exercise: // returns reported inhibition for input `Cc1ccc(Cl)cc1NC(=O)CSc1nnc(C)n1-c1ccccc1`
Key: 21.8

Exercise: For `CC(=O)N1CCc2cc(S(=O)(=O)NCCC(=O)Nc3cc(C)cc(C)c3)ccc21` , what is its reported inhibition?
Key: 12.9

Exercise: # inhibition lookup, item `c1cncc(-c2nc3c4ccccc4nc(N4CCC(N5CCCCC5)CC4)n3n2)c1`
Key: 24.2

Exercise: Looking for the measured inhibition of `COC(=O)C1CCN(C(=O)CSc2nnc(-c3ccncc3)o2)CC1` , can you help?
Key: -9.36

Exercise: What measured inhibition goes with CC(OC(=O)c1cccc(NS(C)(=O)=O)c1)C(=O)Nc1ccc(N2CCOCC2)cc1 (centres undefined) ?
Key: 16.6

Exercise: What inhibition value was documented for this compound, `c1ccc(Cn2nnnc2CN2CCCC2)cc1` ?
Key: 14.5

Exercise: Value lookup for inhibition; key = `N#CCC(=O)Nc1ncn(Cc2ccccc2Cl)n1`
Key: -5.79

Exercise: Reported inhibition, compound `CCc1c(C(=O)Nc2ncn(Cc3cccc(C)c3)n2)csc1C` : ____
Key: 7.43

Exercise: Consider the compound shown here: COc1ccc(S(=O)(=O)NCC(c2cccnc2)N2CCN(C)CC2)cc1C (centres undefined) What is its recorded inhibition?
Key: 4.66

Exercise: // returns reported inhibition for input `O=C(Nc1ccc(F)cc1)NC1CCN(Cc2nnnn2Cc2ccco2)CC1`
Key: -9.98

Exercise: Form field: reported inhibition of CC(C)(C)NC(=O)CN(C(=O)C1CSC(=O)C1)c1ccc2c(c1)OCCO2 (centres undefined)
Key: -11.9
